Tested on: MDA-MB-231 breast
Test: NCI-60 one-dose screen, 48 h (100 = growth as untreated, 0 = no growth, -100 = all killed)
Conditions: 10 µM unless noted
About 83,000 compounds went through this panel and 20% of them were active in at least one assay; those are over-represented in the sample as a whole.
Measured Parameter: growth (%)
Could you give me the number in %? Just the number is fine.

Here are 5 compounds together with their reported answers.
Compound: CCOc1cc(/C=N\NC(=O)N/N=C/c2ccc(O)c(OCC)c2)ccc1O
Test Result: 51.5
--
Compound: O=C(CCCSc1nc(-c2ccccc2)cc(-c2ccccc2)n1)NO
Test Result: 19.8
--
Compound: FC(F)(F)c1ccc2c(c1)Sc1ccccc1N2
Test Result: 99.5
--
Compound: COc1ccc2nc3ccccc3c(NCCNCCO)c2c1
Test Result: -18.9
--
Compound: COc1cc(OC)c(/C=C/C(=O)c2c(N)cc(OC)cc2OC)c(OC)c1
Test Result: 41.2

Proceed to the following item.
# input For the compound O=C(O)CC1CCCCC1c1ccccc1 (stereo unspecified) , what growth is on record?
# output 116

---

System: MCF7 breast
Assay: NCI-60 one-dose screen, 48 h (100 = growth as untreated, 0 = no growth, -100 = all killed)
Conditions: 10 µM unless noted
Experimental: Growth inhibition of the MCF7 human tumor cell line is measured as a screen for anti-cancer activity. Cells are grown in 96 well plates and exposed to the test compound for 48 hours. Compounds are tested at a single concentration, which is 10^-5 M for most compounds. The reported endpoint is percent growth (GI% or GIPRCNT), where numbers from 0 - 100% represent growth inhibition, and numbers from -100% - 0 represent cell death. For example, a value of 40 represents 60% growth inhibition. […]
Compounds without any hit were thinned out: in the full panel of roughly 83,000, 20% have a hit.
The threshold is inclusive: growth of exactly 60% counts as t; values below receive f.

Illustrative cases are given below, each with its answer.
Compound: CC(C)OC(=O)Nc1cc(F)c(F)cc1F
Classification: t
//
Compound: O=C(Nc1cc(-c2cccnc2)nc(NCCCN2CCOCC2)n1)c1cc(Br)cc(C(F)(F)F)c1
Classification: f
//
Compound: O=C(O)c1cc([N+](=O)[O-])ccc1Br
Classification: t
//
Compound: CN(C)c1ccc(-c2ccc(-c3ccc(C(=N)N)cc3)s2)cc1
Classification: f

# input Say whether CCN(CC)c1ccc2cc(C(Nc3ccc(C)cc3)c3nnnn3C(C)(C)C)c(=O)oc2c1 (stereo unspecified) shows growth of 60% or more.
# output t

---

Tested on: OVCAR-3 ovarian
Assay: NCI-60 one-dose screen, 48 h (100 = growth as untreated, 0 = no growth, -100 = all killed)
Conditions: 10 µM unless noted
Compounds without any hit were thinned out: in the full panel of roughly 83,000, 20% have a hit. The source made the active and inactive calls. How the source made its calls: active means growth percent below 10; inactive means the rest.
Measured Parameter: growth

Look over these answered cases.
Input Smiles: C=C(C)[C@@H]1CC[C@]2(C(=O)OC)CC[C@]3(C)[C@H](CC[C@@H]4[C@@]5(C)CC/C(=N\OCCC(=NCCC#N)NOCCC#N)C(C)(C)[C@@H]5CC[C@]43C)[C@@H]12
Test Result: -34.5% [100 µM] (active)
--
Input Smiles: O=[N+]([O-])c1cc([N+](=O)[O-])c(NN=C(c2ccc(O)cc2)c2ccc(O)cc2)cc1Cl
Test Result: -94.6% (active)
--
Input Smiles: C=C(C)[C@@H]1CC[C@]2(C(N)=O)CC[C@]3(C)[C@H](CC[C@@H]4[C@@]5(C)C/C(=C/c6cccnc6)[C@H](O)C(C)(C)[C@@H]5CC[C@]43C)[C@@H]12
Test Result: 29.1% [100 µM] (inactive)

Switching to the query record.
# input Requested field: growth. Item: Cc1ccc(-n2nc3n(/c2=N\C(=O)NS(=O)(=O)c2ccc(C)cc2)CCN3C2=NCCN2)cc1
# output 109% (inactive)

---

Tested on: SK-MEL-28 melanoma
Test: NCI-60 one-dose screen, 48 h
Conditions: 10 µM unless noted
Compounds without any hit were thinned out: in the full panel of roughly 83,000, 20% have a hit. The source made the active and inactive calls. The calls were made as follows: active = growth percent below 10; inactive = the rest.
Outcomes you can answer with include only these: Y (active), N (inactive)

Molecule: O=C(Nc1ccc(Nc2ccncc2)cc1)c1ccc([N+](=O)[O-])cc1
Classification: N
--
Molecule: CC1(C)OC2[C@@H](CNC(=O)NC(=O)NC(=O)CI)O[C@@H](n3cnc4c(NC(=O)Nc5ccccc5)ncnc43)[C@H]2O1 (stereo partly drawn)
Classification: N
--
Molecule: C=C(C)[C@@H]1CC[C@]2(C(N)=O)CC[C@]3(C)[C@H](CC[C@@H]4[C@@]5(C)CC[C@H](O)C(C)(C)[C@@H]5CC[C@]43C)[C@@H]12
Classification: Y
--
Molecule: c1ccc(-c2nnc(-c3c[nH]c4ncccc34)s2)cc1
Classification: N
--
Molecule: c1cc2ccc3cc2cc1CNCCN1CCNCc2ccc4ccc(cc4c2)CNCCN(CCNC3)CCNCc2ccc3ccc(cc3c2)CNCC1
Classification: N
--
Molecule: C=C(C)[C@@H]1CC[C@]2(C(=O)NCCNCCNC(=O)OC(C)(C)C)CC[C@]3(C)[C@H](CC[C@@H]4[C@@]5(C)CCC(=O)C(C)(C)[C@@H]5CC[C@]43C)[C@@H]12
Classification: N
--
Molecule: Cc1ccc(C2=C/C(=C/c3ccc(Br)cc3)C(=O)N2CCc2ccc(S(N)(=O)=O)cc2)cc1
Classification: N
--
Molecule: C=C(C)[C@@H]1CC[C@]2(C)[C@H](CC[C@@H]3[C@@H]([C@@](C)(O)CCC=C(C)C)CC[C@]32C)[C@@]1(C)CCC(=O)O
Classification: Y

Moving on to the next molecule.
# input GET /call?item= CC(C)c1ccc(/C=N/N=C(N)N)cc1 returns the recorded outcome of this test.
# output N

---

Test system: ACHN renal
Assay: NCI-60 one-dose screen, 48 h
Conditions: 10 µM unless noted
Compounds without any hit were thinned out: in the full panel of roughly 83,000, 20% have a hit. The source made the active and inactive calls. The calls were made as follows: active = growth percent below 10; inactive = the rest.
Respond only with the outcome that fits, drawn from active, inactive

Example entries and their recorded answers appear below.
Compound: CC[C@@](C)(NC(=O)[C@H](C)NC(=O)CCNC(=O)C(C)(C)NC(=O)[C@H](C)NC(=O)[C@@H]1CCCN1C(=O)[C@@](C)(CC)NC(=O)[C@H](Cc1ccccc1)NC(=O)C1CCCN1C(=O)C(C)(C)NC(=O)C1CCCN1C(=O)C(C)(C)NC(C)=O)C(=O)NCCC(=O)N[C@@H](CC(C)C)C(=O)NC(C)(C)C(=O)NCCC(=O)N[C@@H](CC(C)C)C(=O)NC(C)(C)C(=O)NC(C)(C)C(=O)N[C@@H](CC(C)C)C(=O)NCCC(=O)NCO (stereo partly drawn)
Classification: active
//
Compound: CCCC(NC(=O)OCc1ccccc1)C(=O)O (stereo not drawn)
Classification: inactive
//
Compound: Cc1ccc(-c2cc(-c3ccc(C)cc3)nc(N3CCN(CCNc4ccnc5cc(Cl)ccc45)CC3)n2)cc1
Classification: inactive
//
Compound: CN(C)CCCNc1nc(-c2cccc(C(Cl)(Cl)Cl)c2)nc(C(Cl)(Cl)Cl)n1
Classification: inactive
//
Compound: CC(C)=CC/C=C(/C)[C@H]1CC[C@]2(C)[C@@H]1CC[C@@H]1[C@@]3(C)CC/C(=N/O)C(C)(C)[C@@H]3CC[C@]12C
Classification: inactive
//
Compound: O=C1Nc2ccccc2/C1=C/C(=O)c1ccc(N2CCCCC2)cc1
Classification: inactive

Now consider a different compound.
# input Just curious, what result did O=C(NCCO)c1cccnc1 get here?
# output inactive

---

Tested on: TK-10 renal
Assay: NCI-60 one-dose screen, 48 h
Settings: 10 µM unless noted
Compounds without any hit were thinned out: in the full panel of roughly 83,000, 20% have a hit. The source made the active and inactive calls. Rule for the calls: active = growth percent below 10; inactive = the rest.
Thanks in advance; please answer with one of these: active, inactive

Previously resolved entries follow.
Compound: CCN(CCNc1ccc(C)c2sc3cc(Cl)ccc3c(=O)c12)CC(C)O (stereo not given)
Classification: inactive
--
Compound: Nc1ccc(Cl)c([N+](=O)[O-])c1
Classification: inactive

# input Recorded test call requested for C=C(C)[C@@H]1CC[C@]2(C)[C@H](CC=C3[C@@H]4[C@@H](C)[C@H](C)CC[C@]4(C(N)=O)CC[C@]32C)[C@@]1(C)CCC#N
# output active

# input Query COc1cc2c(c(OC)c1)C1c3cc(OC)ccc3NC(=O)N1CC2 (stereo not given) next
# output inactive

# input Moving on to the next compound: O=C(Oc1ccc(Cl)cc1[N+](=O)[O-])Oc1ccc(Cl)cc1[N+](=O)[O-]
# output inactive

---

Catalogue of growth values
System: CCRF-CEM leukemia
Experiment: NCI-60 one-dose screen, 48 h (100 = growth as untreated, 0 = no growth, -100 = all killed)
Conditions: 10 µM unless noted
The panel holds about 83,000 compounds, 20% with a hit somewhere; the sample as a whole holds those more often. Calls of active or inactive are those of the source. The calls were made as follows: active = growth percent below 10; inactive = the rest.

Compound: Nc1cc(N)c(N=Nc2ccc(S(=O)(=O)O)cc2)cc1N=Nc1ccc(-c2ccc(N=Nc3ccc(O)c(C(=O)O)c3)cc2)cc1
growth: 98% (inactive)
//
Compound: COc1cc(OC)c(/C=C/C(=O)c2c(N)cc(OC)cc2OC)c(OC)c1
growth: 12.3% (inactive)
//
Compound: COc1ccc(-c2cc(-c3ccc(OC)c(OC)c3)nc(SCCCCCC(=O)NO)n2)cc1
growth: 22.7% (inactive)
//
Compound: CS(=O)(=O)c1cccnn1
growth: 84.9% (inactive)

# input Find the recorded growth belonging to CCOC(=O)Nc1ccc2c(c1)/C(=N\NC(=S)NC)c1ccccc1-2 and report it.
# output 61.8% (inactive)

# input And what about the compound COc1ccc2c(c1)C(C)Cc1c(Cl)ncnc1N2C (centres undefined) ?
# output 13.8% (inactive)

# input Lookup CNC(=O)c1cc(Oc2cccc3nc(NC(=O)Nc4cc(C(F)(F)F)cc(C(F)(F)F)c4)ccc23)ccn1
# output 73.3% (inactive)

These data points were gathered from PubChem BioAssay (NCI).
